The entries below are paired with their reported self-cleavage.
B1: LINE1-mini (parent)
chain: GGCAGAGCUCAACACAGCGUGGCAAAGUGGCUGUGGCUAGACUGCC

Variants of: B1
protocolDetails: self-cleavage, relative activity (ratio to wild type); higher = more cleavage; in vitro, sequencing; the parent is a self-cleaving ribozyme
When you answer, write just the number.

Entry G22C needs its self-cleavage filled in; supply it.
0.78

More entries:
Entry G1A A12C needs its self-cleavage filled in; supply it.
0.04

Entry C31U C46A needs its self-cleavage filled in; supply it.
0.15
